Target: UniProt O60674
Test: in vitro JAK2 kinase activity test, Mobility Shift Assay
Type: biochemical
Conditions: compound concentration 0.1 μM; read-out: Percentage of inhibition against JAK2 at 0.1 μM
Experimental: The in vitro JAK2 and FLT3 kinase activity test was performed on the compounds of the 2-aminopyrimidine backbone of the above formula I (concentration 0.1 μM) according to the present invention using Mobility Shift Assay. The control compounds Pacritinib and Fedratinib were prepared by our research group. The kinase buffer was composed of 50 mM HEPEs (pH 7.5) and 0.0015% BRIJ-35. The stop buffer contained a mixture of 100 mM HEPES (pH 7.5), 0.015% BRIJ-35, 0.2% coating reagent #3 and 50 mM EDTA. […]
readout label: inhibition at 0.1 µM (%)

Completed entries (count: 2):
[
  {
    "molecule": "N#Cc1ccc(NC(=O)N2CCN(c3ccnc(Nc4ccc(N5CCOCC5)cc4)n3)CC2)cc1F",
    "meas value": 63.7
  },
  {
    "molecule": "CC(=O)c1ccc(NC(=O)N2CCN(c3ccnc(Nc4ccc(OCCN5CCOCC5)cc4)n3)CC2)cc1",
    "meas value": 61.7
  }
]

[1] CC(=O)c1ccc(NC(=O)N2CCC(Nc3nc(Nc4ccc(N5CCOCC5)cc4)ncc3C)C2)cc1 (stereo not shown)
[2] CC(=O)c1ccc(NC(=O)N2CCN(c3nc(Nc4ccc(N5CCOCC5)cc4)nc4ccsc34)CC2)cc1
[3] CC(=O)c1ccc(NC(=O)NC2CN(c3nc(Nc4ccc(N5CCOCC5)cc4)ncc3C)C2)cc1
Q: Order field: inhibition at 0.1 µM | Direction: descending (largest first) List labels; respect the requested ordering.
Result: 1, 2, 3
(1: 69.3%, 2: 44%, 3: 21.9%)

[1] CC(=O)c1ccc(NC(=O)N2CCN(c3nc(Nc4ccc(N5CCOCC5)cc4)ncc3C)CC2)cc1
[2] O=C(Nc1ccccc1)N1CCN(c2ccnc(Nc3ccc(N4CCOCC4)cc3)n2)CC1
Q: Of the two listed items, 1 and 2 , which carries the larger inhibition at 0.1 µM figure? Let me know the label of the one you choose.
Result: 1
(1: 81.8%, 2: 53.7%)

---

Target: JAK2 (Homo sapiens, UniProt O60674)
Sequence (O60674 whole entry): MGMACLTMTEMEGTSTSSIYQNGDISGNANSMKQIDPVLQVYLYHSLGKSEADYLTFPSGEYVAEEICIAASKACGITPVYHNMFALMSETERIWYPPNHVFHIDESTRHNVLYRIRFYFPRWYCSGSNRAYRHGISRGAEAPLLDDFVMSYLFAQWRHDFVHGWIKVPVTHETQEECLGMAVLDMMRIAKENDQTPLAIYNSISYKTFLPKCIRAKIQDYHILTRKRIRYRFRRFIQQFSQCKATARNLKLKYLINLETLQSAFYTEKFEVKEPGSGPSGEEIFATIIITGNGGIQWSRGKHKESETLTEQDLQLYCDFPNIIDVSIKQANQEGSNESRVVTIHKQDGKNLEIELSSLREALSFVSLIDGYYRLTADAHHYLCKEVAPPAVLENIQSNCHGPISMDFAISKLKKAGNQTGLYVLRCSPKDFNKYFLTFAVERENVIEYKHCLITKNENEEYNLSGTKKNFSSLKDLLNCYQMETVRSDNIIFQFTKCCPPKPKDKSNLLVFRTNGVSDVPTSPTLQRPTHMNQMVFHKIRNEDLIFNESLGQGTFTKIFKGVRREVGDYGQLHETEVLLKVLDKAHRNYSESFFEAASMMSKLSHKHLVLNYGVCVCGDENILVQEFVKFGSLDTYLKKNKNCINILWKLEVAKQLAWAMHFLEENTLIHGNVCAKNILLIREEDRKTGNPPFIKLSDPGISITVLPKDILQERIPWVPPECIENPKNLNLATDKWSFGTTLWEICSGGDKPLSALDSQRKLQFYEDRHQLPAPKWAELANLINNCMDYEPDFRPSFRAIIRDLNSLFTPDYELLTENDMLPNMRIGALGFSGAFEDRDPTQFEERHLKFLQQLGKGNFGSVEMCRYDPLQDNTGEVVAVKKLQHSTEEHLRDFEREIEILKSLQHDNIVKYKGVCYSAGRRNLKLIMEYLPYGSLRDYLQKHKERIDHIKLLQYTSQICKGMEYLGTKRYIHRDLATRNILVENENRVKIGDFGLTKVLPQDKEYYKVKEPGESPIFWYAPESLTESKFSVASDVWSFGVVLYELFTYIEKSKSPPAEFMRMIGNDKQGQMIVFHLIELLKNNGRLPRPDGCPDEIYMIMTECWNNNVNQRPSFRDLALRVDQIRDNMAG
Test: in vitro JAK2 kinase activity test, Mobility Shift Assay
Type: biochemical
Conditions: compound concentration 0.1 μM; read-out: Percentage of inhibition against JAK2 at 0.1 μM
readout label: inhibition at 0.1 µM (%)

[
  {
    "molecule": "CC(=O)c1ccc(NC(=O)N2CCN(c3ccnc(Nc4ccc(N5CCOCC5)cc4)n3)CC2)cc1",
    "system": "JAK2 (Homo sapiens, UniProt O60674)",
    "inhibition at 0.1 µM, %": 76.7
  },
  {
    "molecule": "O=C(Nc1ccc(OC(F)(F)F)cc1)N1CCN(c2ccnc(Nc3ccc(N4CCOCC4)cc3)n2)CC1",
    "system": "JAK2 (Homo sapiens, UniProt O60674)",
    "inhibition at 0.1 µM, %": 54.3
  },
  {
    "molecule": "CC(=O)c1ccc(NC(=O)C2CCN(c3nc(Nc4ccc(N5CCOCC5)cc4)ncc3C)CC2)cc1",
    "system": "JAK2 (Homo sapiens, UniProt O60674)",
    "inhibition at 0.1 µM, %": 74.3
  },
  {
    "molecule": "CNC(=O)c1ccc(NC(=O)N2CCN(c3ccnc(Nc4ccc(N5CCOCC5)cc4)n3)CC2)cc1",
    "system": "JAK2 (Homo sapiens, UniProt O60674)",
    "inhibition at 0.1 µM, %": 68.1
  },
  {
    "molecule": "C1=C/COCc2cc(ccc2OCCN2CCCC2)Nc2nccc(n2)-c2cccc(c2)COC/1 [Pacritinib, reference compound]",
    "system": "JAK2 (Homo sapiens, UniProt O60674)",
    "inhibition at 0.1 µM, %": 92
  },
  {
    "molecule": "CC(=O)Nc1ccc(NC(=O)N2CCN(c3ccnc(Nc4ccc(N5CCOCC5)cc4)n3)CC2)cc1",
    "system": "JAK2 (Homo sapiens, UniProt O60674)",
    "inhibition at 0.1 µM, %": 73
  },
  {
    "molecule": "CC(=O)c1ccc(NC(=O)NC2CCN(c3nc(Nc4ccc(N5CCOCC5)cc4)ncc3C)C2)cc1 (stereo not drawn)",
    "system": "JAK2 (Homo sapiens, UniProt O60674)",
    "inhibition at 0.1 µM, %": 57.4
  },
  {
    "molecule": "NC(=O)c1ccc(NC(=O)N2CCN(c3ccnc(Nc4ccc(N5CCOCC5)cc4)n3)CC2)cc1",
    "system": "JAK2 (Homo sapiens, UniProt O60674)",
    "inhibition at 0.1 µM, %": 76.3
  },
  {
    "molecule": "NS(=O)(=O)c1ccc(NC(=O)N2CCN(c3ccnc(Nc4ccc(N5CCOCC5)cc4)n3)CC2)cc1",
    "system": "JAK2 (Homo sapiens, UniProt O60674)",
    "inhibition at 0.1 µM, %": 76
  }
]
